target: myeloperoxidase (Homo sapiens, UniProt P05164); assay: MPO Peroxidation Assay (Amplex Red Assay); format: biochemical; details: potency range class, read-out: Amplex Red Assay IC50 value
Sequence (P05164 49-745): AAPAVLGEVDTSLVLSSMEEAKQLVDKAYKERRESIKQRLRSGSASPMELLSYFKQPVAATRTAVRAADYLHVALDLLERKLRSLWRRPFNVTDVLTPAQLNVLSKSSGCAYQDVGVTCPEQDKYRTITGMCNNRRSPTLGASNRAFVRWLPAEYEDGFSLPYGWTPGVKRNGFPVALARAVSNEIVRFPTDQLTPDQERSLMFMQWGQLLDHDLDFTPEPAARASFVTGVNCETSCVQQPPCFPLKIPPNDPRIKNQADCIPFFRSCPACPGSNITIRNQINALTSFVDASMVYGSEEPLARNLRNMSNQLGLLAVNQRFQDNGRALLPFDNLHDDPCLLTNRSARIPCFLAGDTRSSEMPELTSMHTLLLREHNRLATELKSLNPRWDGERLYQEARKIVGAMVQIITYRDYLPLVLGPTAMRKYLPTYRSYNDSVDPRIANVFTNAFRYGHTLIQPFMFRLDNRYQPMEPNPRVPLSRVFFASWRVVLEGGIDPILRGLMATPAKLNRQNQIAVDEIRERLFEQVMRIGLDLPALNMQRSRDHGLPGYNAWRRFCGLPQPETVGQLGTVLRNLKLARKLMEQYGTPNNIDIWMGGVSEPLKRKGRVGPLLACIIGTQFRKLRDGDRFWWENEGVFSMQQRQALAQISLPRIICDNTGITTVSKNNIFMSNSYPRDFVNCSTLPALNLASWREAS
readout: IC50

Example cases with answers are listed next.
{"compound": "Nc1cc(C(CCO)c2ccccc2)c2nn[nH]c2n1 (stereo not shown) [Example 174]", "readout": "IC50", "reported-value": "0.101 to 0.999 µM"}
{"compound": "CC(C)(Cc1ccccc1)NCCC(c1ccccc1)c1cc(N)nc2[nH]nnc12 (stereo not shown) [Example 119]", "readout": "IC50", "reported-value": "0.101 to 0.999 µM"}
{"compound": "Nc1cc([C@H](CCN(CC(F)F)C23CCC(c4ccccc4)(CC2)CC3)c2ccccc2)c2nn[nH]c2n1 [Example 197]", "readout": "IC50", "reported-value": "0.101 to 0.999 µM"}

Measured IC50 of Nc1cc([C@H](CCNC23CCC(c4ccccc4)(CC2)C(O)C3)c2ccccc2)c2nn[nH]c2n1 (stereo partly shown) [Example 154] : 0.001 to 0.1 µM

Lookup result for Nc1cc([C@H](Cc2nc3ccccc3s2)c2ccccc2)c2nn[nH]c2n1 [Example 239] ; measured IC50: 0.001 to 0.1 µM

In plain terms, Nc1cc(C(CCN[C@H]2CC[C@@H](c3ccc(Cl)cc3)CC2)c2ccccc2)c2nn[nH]c2n1 (stereo partly shown) [Example 107] has a documented IC50 of 0.101 to 0.999 µM

The recorded IC50 for entry Nc1cc(C(CCNC2(c3ccccc3)CCC(c3ccccc3)CC2)c2ccccc2)c2nn[nH]c2n1 (stereo not shown) [Example 144] equals 1 to 10 µM
